target: connexin hemichannels (Rattus norvegicus, UniProt P08050)
Construct: leads to the expression of connexin hemichannels; from tissue; host or cells: rat (Wistar p7) spinal cord, 500 micron slices in culture
Sequence (P08050 2-382): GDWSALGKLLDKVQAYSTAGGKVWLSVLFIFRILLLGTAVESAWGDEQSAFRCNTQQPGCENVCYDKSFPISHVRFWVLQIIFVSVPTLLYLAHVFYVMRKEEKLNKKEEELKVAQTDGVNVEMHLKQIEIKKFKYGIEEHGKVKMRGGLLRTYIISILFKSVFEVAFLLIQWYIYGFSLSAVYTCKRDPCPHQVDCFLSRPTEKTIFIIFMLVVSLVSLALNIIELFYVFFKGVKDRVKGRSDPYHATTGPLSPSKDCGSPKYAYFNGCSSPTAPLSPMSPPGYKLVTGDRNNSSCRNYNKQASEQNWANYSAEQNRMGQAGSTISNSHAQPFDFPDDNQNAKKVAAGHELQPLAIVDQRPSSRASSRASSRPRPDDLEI
run.description: Blockage of dye (Lucifer Yellow) uptake by cells in spinal cord slices
Assay type: cell-based
test.context: 500 micromolar peptide, slices incubated four hours, then Lucifer Yellow 30 minutes
assay.endpoint: dye (Lucifer Yellow) uptake / block of hemichannels

>>> value_measured("VDCFLSRPTEKT [connexin 43 mimetic peptide, E2]")
"block hemichannels"
>>> value_measured("SRPTEKTIFII [connexin 43 mimetic peptide, E2 & M4]")
"block hemichannels"
